test: Cytotoxicity against human CEM cells assessed as minimum concentration required for morphological alteration by microscopic analysis; type: cell-based, CCRF-CEM
Catalogue of molecules with associated MCC

Below, 2 molecules whose answers are already recorded.
>>> df
                                   molecule    result
0  CN(C)c1nc(N)nc2c1ncn2C[C@H](CF)OCP(=O)(O)O  ≥ 100 µM
1  C[C@H](Cn1cnc2c(N)ncnc21)OCP(=O)(O)O [TENOFOVIR ANHYDROUS]  > 100 µM

Exam item: // query MCC value for entry CCN(CC)c1nc(N)nc2c1ncn2C[C@@H](CF)OCP(=O)(O)O
Marked response: > 100 µM

Exam item: Given CCN(CC)c1nc(N)nc2c1ncn2C[C@H](CF)OCP(=O)(O)O , state its recorded MCC.
Marked response: > 100 µM

Exam item: Please give the measured MCC for this molecule: CN(C)c1nc(N)nc2c1ncn2C[C@@H](CF)OCP(=O)(O)O
Marked response: > 100 µM

---

molecular target: N6-methyl-AMP deaminase, ADAL (Homo sapiens) (UniProt Q6DHV7); assay: Activity at human recombinant N6-methyl-AMP deaminase assessed as reaction rate after 60 mins by HPLC analysis
Sequence (Q6DHV7 whole entry, looked up): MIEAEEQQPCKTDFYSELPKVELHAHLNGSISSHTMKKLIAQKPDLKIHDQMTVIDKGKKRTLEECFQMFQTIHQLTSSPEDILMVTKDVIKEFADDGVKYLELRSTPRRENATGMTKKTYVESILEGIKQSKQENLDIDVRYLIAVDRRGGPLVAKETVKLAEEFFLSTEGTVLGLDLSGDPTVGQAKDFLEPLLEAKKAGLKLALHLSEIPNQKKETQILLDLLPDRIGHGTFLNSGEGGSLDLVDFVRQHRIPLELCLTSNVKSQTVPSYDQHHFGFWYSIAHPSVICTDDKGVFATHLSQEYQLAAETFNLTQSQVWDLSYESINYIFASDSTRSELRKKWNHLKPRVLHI
The source made the active and inactive calls. The rule behind the calls is not given here.
Value kind: Activity

Please review the entries below; each comes with its answer.
                                item_smiles  value_kind            result
0  CCCNc1nc(N)nc2c1ncn2C[C@H](CF)OCP(=O)(O)O    Activity  4.17 nmol/min/mg
1  Nc1nc(NC2CC2)c2ncn(C[C@H](CF)OCP(=O)(O)O)c2n1    Activity  64.5 nmol/min/mg
2  C=CCNc1nc(N)nc2c1ncn2C[C@@H](CF)OCP(=O)(O)O    Activity          inactive
3  Nc1nc(NC2CC2)c2ncn(C[C@@H](CF)OCP(=O)(O)O)c2n1    Activity  1.98 nmol/min/mg
4  CN(C)c1nc(N)nc2c1ncn2C[C@H](CF)OCP(=O)(O)O    Activity  23.6 nmol/min/mg
5  C=CCNc1nc(N)nc2c1ncn2C[C@H](CF)OCP(=O)(O)O    Activity  5.64 nmol/min/mg
6  CN(C)c1nc(N)nc2c1ncn2C[C@@H](CF)OCP(=O)(O)O    Activity  8.07 nmol/min/mg

Turning to the following compound.
Exam item: May I ask what Activity has been recorded for CCCNc1nc(N)nc2c1ncn2C[C@@H](CF)OCP(=O)(O)O ?
Marked response: inactive

---

test system: Human immunodeficiency virus 1; assay: Antiviral activity against HIV1 infected in human MT4 cells assessed as inhibition of virus-induced cytopathicity; format: functional, organism-based; details: Human immunodeficiency virus 1, MT4
Value kind: pEC50
Please treat pEC50 as minus the base-10 logarithm of the molar concentration.

For orientation, consider the following solved cases.
>>> df
                                item_smiles  numeric_value
0  Nc1nc(N)c2ncn(C[C@H](CF)OCP(=O)(O)O)c2n1           5.37
1  Nc1nc(N)c2ncn(C[C@@H](CF)OCP(=O)(O)O)c2n1           4.82
2  Nc1nc(O)c2ncn(C[C@H](CF)OCP(=O)(O)O)c2n1           5.23

Exam item: Dear colleague, I am looking for the recorded pEC50 of the following molecule: Nc1nc(O)c2ncn(C[C@@H](CF)OCP(=O)(O)O)c2n1
Marked response: 5.41

---

assay: Cytotoxicity against human MT4 cells; assay type: cell-based
Reported CC50 values for a set of compounds

Worked examples follow.
In [3]: df
Out[3]:
                                item_smiles    result
0  Nc1nc(O)c2ncn(C[C@@H](CF)OCP(=O)(O)O)c2n1    103 µM
1  Nc1nc(N)c2ncn(C[C@H](CF)OCP(=O)(O)O)c2n1  > 300 µM
2  Nc1nc(N)c2ncn(C[C@@H](CF)OCP(=O)(O)O)c2n1  > 300 µM

Exam item: I am curious: what CC50 value has been reported for Nc1nc(O)c2ncn(C[C@H](CF)OCP(=O)(O)O)c2n1 ?
Marked response: > 300 µM

---

experiment: Cytotoxicity against human CEM cells assessed as inhibition of cell proliferation after 72 hrs by coulter counter analysis; type: cell-based, CCRF-CEM
Value kind: CC50 at 72 h

In [3]: df
Out[3]:
                                   molecule    value_kind    result
0  C[C@H](Cn1cnc2c(N)ncnc21)OCP(=O)(O)O [TENOFOVIR ANHYDROUS]  CC50 at 72 h  > 250 µM

Exam item: Recorded CC50 at 72 h for Nc1nc(NC2CC2)c2ncn(C[C@@H](CF)OCP(=O)(O)O)c2n1 , please?
Marked response: > 278 µM

Exam item: For the molecule COCCNc1nc(N)nc2c1ncn2C[C@@H](CF)OCP(=O)(O)O , what CC50 at 72 h is on record?
Marked response: > 100 µM

Exam item: # input molecule: Nc1nc(N2CCCC2)c2ncn(C[C@@H](CF)OCP(=O)(O)O)c2n1 ; wanted: its CC50 at 72 h
Marked response: > 100 µM

Exam item: # input molecule: Nc1nc(N2CCCC2)c2ncn(C[C@H](CF)OCP(=O)(O)O)c2n1 ; wanted: its CC50 at 72 h
Marked response: > 100 µM

Exam item: Quick one: CC50 at 72 h of CN(C)c1nc(N)nc2c1ncn2C[C@H](CF)OCP(=O)(O)O ?
Marked response: > 287 µM

Exam item: Which value of CC50 at 72 h has been reported for Nc1nc(NC2CC2)c2ncn(C[C@H](CF)OCP(=O)(O)O)c2n1 in the records?
Marked response: > 278 µM

Exam item: What measured CC50 at 72 h goes with COCCNc1nc(N)nc2c1ncn2C[C@H](CF)OCP(=O)(O)O ?
Marked response: > 100 µM

Exam item: Consider the molecule CN(C)CCNc1nc(N)nc2c1ncn2C[C@@H](CF)OCP(=O)(O)O and give its measured CC50 at 72 h.
Marked response: > 100 µM

Exam item: Need CC50 at 72 h, item C=CCNc1nc(N)nc2c1ncn2C[C@@H](CF)OCP(=O)(O)O
Marked response: > 247 µM

Exam item: Can you share its CC50 at 72 h? I mean this molecule: CCN(CC)c1nc(N)nc2c1ncn2C[C@H](CF)OCP(=O)(O)O
Marked response: > 100 µM

Exam item: Would you mind telling me what CC50 at 72 h value was observed for CCCNc1nc(N)nc2c1ncn2C[C@H](CF)OCP(=O)(O)O ?
Marked response: > 276 µM

Exam item: Report CC50 at 72 h for C=CCNc1nc(N)nc2c1ncn2C[C@H](CF)OCP(=O)(O)O please.
Marked response: > 278 µM

Exam item: What value of CC50 at 72 h has been reported for the following molecule? CN(C)c1nc(N)nc2c1ncn2C[C@@H](CF)OCP(=O)(O)O
Marked response: > 255 µM

Exam item: Find the recorded CC50 at 72 h belonging to CCCNc1nc(N)nc2c1ncn2C[C@@H](CF)OCP(=O)(O)O and report it.
Marked response: > 276 µM

Exam item: Any idea what its CC50 at 72 h is? The molecule is CCN(CC)c1nc(N)nc2c1ncn2C[C@@H](CF)OCP(=O)(O)O
Marked response: > 100 µM

Exam item: Recorded CC50 at 72 h for CN(C)CCNc1nc(N)nc2c1ncn2C[C@H](CF)OCP(=O)(O)O , please?
Marked response: > 53 µM

Exam item: Using the record for Nc1ncnc2c1ncn2CCOCP(=O)(O)O , report its CC50 at 72 h.
Marked response: ≥ 250 µM

---

Below, each entry is listed with its recorded MCC.
experiment: Cytotoxicity against human CEM cells assessed as minimum concentration required for morphological alteration by microscopic analysis; assay type: cell-based, CCRF-CEM

Take a look at these entries with their results.
                                item_smiles  value_kind    result
0  Nc1nc(N2CCCC2)c2ncn(C[C@@H](CF)OCP(=O)(O)O)c2n1         MCC  ≥ 100 µM
1  CN(C)CCNc1nc(N)nc2c1ncn2C[C@@H](CF)OCP(=O)(O)O         MCC  > 100 µM
2  Nc1nc(NC2CC2)c2ncn(C[C@@H](CF)OCP(=O)(O)O)c2n1         MCC  > 100 µM
3  COCCNc1nc(N)nc2c1ncn2C[C@H](CF)OCP(=O)(O)O         MCC  > 100 µM
4  CCCNc1nc(N)nc2c1ncn2C[C@@H](CF)OCP(=O)(O)O         MCC  ≥ 100 µM

Exam item: May I ask what MCC has been recorded for CCCNc1nc(N)nc2c1ncn2C[C@H](CF)OCP(=O)(O)O ?
Marked response: > 100 µM

Exam item: Using the record for Nc1ncnc2c1ncn2CCOCP(=O)(O)O , report its MCC.
Marked response: ≥ 100 µM

Exam item: Return reported MCC; argument: Nc1nc(N2CCCC2)c2ncn(C[C@H](CF)OCP(=O)(O)O)c2n1
Marked response: > 100 µM

Exam item: MCC for COCCNc1nc(N)nc2c1ncn2C[C@@H](CF)OCP(=O)(O)O ?
Marked response: > 100 µM

Exam item: Look up MCC for this compound: C=CCNc1nc(N)nc2c1ncn2C[C@@H](CF)OCP(=O)(O)O
Marked response: > 100 µM

Exam item: Need MCC of Nc1nc(NC2CC2)c2ncn(C[C@H](CF)OCP(=O)(O)O)c2n1 , thanks.
Marked response: > 100 µM

Exam item: Any idea what MCC was measured for C=CCNc1nc(N)nc2c1ncn2C[C@H](CF)OCP(=O)(O)O ?
Marked response: > 100 µM
